Biological target: T1, Chryseobacterium sp-62563 deamidase polypeptide (second polypeptide, deamidase domain), wildtype (Chryseobacterium sp-62563)
T1 sequence: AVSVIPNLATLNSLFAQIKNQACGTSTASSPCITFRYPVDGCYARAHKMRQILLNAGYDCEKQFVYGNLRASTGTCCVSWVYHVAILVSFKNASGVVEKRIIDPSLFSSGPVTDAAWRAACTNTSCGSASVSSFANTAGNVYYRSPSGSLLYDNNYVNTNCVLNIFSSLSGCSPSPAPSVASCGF
Test: cell-based or functional assay
Reported property: Leakage activity (%)

Chryseobacterium sp-62563 propeptide Y45S (protein) NQDPNLVAKESNETAMKDFGKTVPVGIEKEDGKFKISFMVTAQPSEIKDSKENAAYISMIKTAVENETPIHVFLKANTNEIAKVDKATDDDIRYFKSVFTKEVKEENRK = 0

P. Chryseobacterium sp-62563 propeptide V40P (protein) NQDPNLVAKESNETAMKDFGKTVPVGIEKEDGKFKISFMPTAQPYEIKDSKENAAYISMIKTAVENETPIHVFLKANTNEIAKVDKATDDDIRYFKSVFTKEVKEENRK
Q. Chryseobacterium sp-62563 propeptide F99G (protein) NQDPNLVAKESNETAMKDFGKTVPVGIEKEDGKFKISFMVTAQPYEIKDSKENAAYISMIKTAVENETPIHVFLKANTNEIAKVDKATDDDIRYFKSVGTKEVKEENRK
Q) Between the entries labelled P and Q , which has a larger Leakage activity value on record? Identify your selection by its label.
A) Q
(Q: 9%, P: 0%)

Attribution: patent US20250215412A1
